target: CBC (6 mutations) (Homo sapiens, UniProt P52298, D107R/Y50A/Y89A); assay: ITC, m^7GTP binding to CBC with triple mutants of both CBP20 and CBP80; details: 25 °C, pH 7.8, CBP80 Y461A/R610E/H651A + CBP20 Y50A/Y89A/D107R, mean ± SD of 2 experiments
Sequence (P52298 whole entry Y50A/Y89A/D107R): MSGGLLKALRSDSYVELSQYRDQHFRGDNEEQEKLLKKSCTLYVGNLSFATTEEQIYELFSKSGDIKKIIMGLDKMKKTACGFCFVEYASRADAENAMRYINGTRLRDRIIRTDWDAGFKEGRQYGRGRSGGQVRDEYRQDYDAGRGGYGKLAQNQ
Sequence (Q09161 with tags, fused parts or gaps Y461A/R610E/H651A partner): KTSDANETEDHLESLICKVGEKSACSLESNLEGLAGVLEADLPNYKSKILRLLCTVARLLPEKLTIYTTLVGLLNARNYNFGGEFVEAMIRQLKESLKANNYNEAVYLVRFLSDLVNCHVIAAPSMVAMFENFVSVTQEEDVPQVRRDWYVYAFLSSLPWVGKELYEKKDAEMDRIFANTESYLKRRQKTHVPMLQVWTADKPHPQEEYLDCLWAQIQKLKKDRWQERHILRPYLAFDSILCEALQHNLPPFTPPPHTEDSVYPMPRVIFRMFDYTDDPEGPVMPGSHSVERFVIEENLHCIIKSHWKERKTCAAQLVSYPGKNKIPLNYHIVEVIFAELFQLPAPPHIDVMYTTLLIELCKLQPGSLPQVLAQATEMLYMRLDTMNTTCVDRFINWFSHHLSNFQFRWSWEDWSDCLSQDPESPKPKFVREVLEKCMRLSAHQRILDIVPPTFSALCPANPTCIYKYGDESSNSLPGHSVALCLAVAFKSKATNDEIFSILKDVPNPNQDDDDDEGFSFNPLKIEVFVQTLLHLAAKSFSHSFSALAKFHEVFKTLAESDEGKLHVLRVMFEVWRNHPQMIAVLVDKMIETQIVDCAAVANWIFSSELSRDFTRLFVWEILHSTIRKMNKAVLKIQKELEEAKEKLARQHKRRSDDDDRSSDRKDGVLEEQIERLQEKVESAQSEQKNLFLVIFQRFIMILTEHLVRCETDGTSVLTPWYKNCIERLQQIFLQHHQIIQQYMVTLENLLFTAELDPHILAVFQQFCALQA
RECORDED METRIC: Kd (µM)
Report the value in µM with no unit label.

Form field: reported Kd of C[n+]1cn([C@@H]2O[C@H](COP(=O)(O)OP(=O)([O-])OP(=O)(O)O)[C@@H](O)[C@H]2O)c2nc(N)[nH]c(=O)c21
70

----------
biological target: CBC (Homo sapiens); assay: ITC, binding to CBC without cap analogue; conditions: ITC (MicroCal ITC200), 25 °C, 20 mM HEPES, 120 mM NaCl, 2 mM TCEP, pH 7.8, single-site fit; no cap analogue pre-bound; mean ± SD of at least two independent experiments
Sequence (P52298 whole entry): as the sequence (P52298 whole entry Y50A/Y89A/D107R) above, with A50Y, A89Y, R107D counted along it
Sequence (Q09161 20-790 partner): as the sequence (Q09161 with tags, fused parts or gaps Y461A/R610E/H651A partner) above, with A442Y, E591R, A632H counted along it
RECORDED METRIC: Kd (nM)
Numeric answer only, unit nM assumed.

Returns the measured Kd for the input compound. Input: C[n+]1cn([C@@H]2O[C@H](COP(=O)(O)OP(=O)([O-])OP(=O)(O)O)[C@@H](O)[C@H]2O)c2nc(N)[nH]c(=O)c21 [m^7GTP]
100

----------
target: CBC-NELF-E 244–380 (Homo sapiens)
Sequence (P52298 whole entry): as the sequence (P52298 whole entry Y50A/Y89A/D107R) above, with A50Y, A89Y, R107D counted along it
Sequence (Q09161 20-790 partner): as the sequence (Q09161 with tags, fused parts or gaps Y461A/R610E/H651A partner) above, with A442Y, E591R, A632H counted along it
Sequence (P18615 244-380 partner): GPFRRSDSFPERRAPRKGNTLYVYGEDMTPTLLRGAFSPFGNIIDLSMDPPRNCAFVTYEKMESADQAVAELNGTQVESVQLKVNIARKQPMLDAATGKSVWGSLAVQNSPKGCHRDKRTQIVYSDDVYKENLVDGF
RECORDED METRIC: pKd
API: returns pKd as number; meaning -log10 of concentration in mol/L.

Consider the compound shown here: C[n+]1cn([C@@H]2O[C@H](COP(=O)(O)OP(=O)([O-])OP(=O)(O)O)[C@@H](O)[C@H]2O)c2nc(N)[nH]c(=O)c21 What is its recorded pKd?
7.36
